test: SBL liposome formation, diameter and PDI in various salts; type: physicochemical; details: 150 mM NaI, five minutes after sonication
PROPERTY: PDI

- CCCCCCCC/C=C\CCCCCCCC(=O)OCC(C[N+](C)(C)CCCS(=O)(=O)[O-])OC(=O)CCCCCCC/C=C\CCCCCCCC (centres unmarked) [DOSB]: 0.246
- CCCCCCCCCCCC(=O)OCC(C[N+](C)(C)CCCS(=O)(=O)[O-])OC(=O)CCCCCCCCCCC (centres unmarked) [DLSB]: 0.163
- CCCCCCCCCCCCCC(=O)OCC(C[N+](C)(C)CCCS(=O)(=O)[O-])OC(=O)CCCCCCCCCCCCC (centres unmarked) [DMSB]: 0.232
- CCCCCCCCCCCCCCCCCC(=O)OCC(C[N+](C)(C)CCCS(=O)(=O)[O-])OC(=O)CCCCCCCCCCCCCCCCC (centres unmarked) [DSSB]: 0.231
- CCCCCCCCCCCCCCCC(=O)OCC(C[N+](C)(C)CCCS(=O)(=O)[O-])OC(=O)CCCCCCCCCCCCCCC (centres unmarked) [DPSB]: 0.296

###

assay: SBL liposome formation, diameter and PDI in various salts; type: physicochemical; conditions: 150 mM NaI, five minutes after sonication
The label depends only on Liposome diameter (nm): y if it is at least 40 nm, n if it is smaller.

* CCCCCCCCCCCC(=O)OCC(C[N+](C)(C)CCCS(=O)(=O)[O-])OC(=O)CCCCCCCCCCC (centres unmarked) | n
* CCCCCCCCCCCCCCCC(=O)OCC(C[N+](C)(C)CCCS(=O)(=O)[O-])OC(=O)CCCCCCCCCCCCCCC (centres unmarked) | y
* CCCCCCCC/C=C\CCCCCCCC(=O)OCC(C[N+](C)(C)CCCS(=O)(=O)[O-])OC(=O)CCCCCCC/C=C\CCCCCCCC (centres unmarked) | y
* CCCCCCCCCCCCCC(=O)OCC(C[N+](C)(C)CCCS(=O)(=O)[O-])OC(=O)CCCCCCCCCCCCC (centres unmarked) | n
* CCCCCCCCCCCCCCCCCC(=O)OCC(C[N+](C)(C)CCCS(=O)(=O)[O-])OC(=O)CCCCCCCCCCCCCCCCC (centres unmarked) | y

###

Assay: SBL liposome formation, diameter and PDI in various salts
Format: physicochemical
Details: 150 mM KBr, five minutes after sonication
Method: The five SBLs were first examined for their ability to make vesicles under standard buffer conditions (10 mM HEPES, 140 mM NaCl, pH 7.4). […] Liposome preparations were made at 26 mM lipid in 10 mM HEPES buffer, pH 7.4 with the specified salt concentration. All preparations were rehydrated and sonicated at 80° C. for 7 minutes, allowed to cool for 5 minutes and then measured. Liposome diameters were measured both five minutes after sonication and at 24 hours. […]
PROPERTY: PDI

• CCCCCCCCCCCCCC(=O)OCC(C[N+](C)(C)CCCS(=O)(=O)[O-])OC(=O)CCCCCCCCCCCCC (centres unmarked) = 0.160
• CCCCCCCC/C=C\CCCCCCCC(=O)OCC(C[N+](C)(C)CCCS(=O)(=O)[O-])OC(=O)CCCCCCC/C=C\CCCCCCCC (centres unmarked) = 0.260
• CCCCCCCCCCCCCCCCCC(=O)OCC(C[N+](C)(C)CCCS(=O)(=O)[O-])OC(=O)CCCCCCCCCCCCCCCCC (centres unmarked) = 0.123
• CCCCCCCCCCCC(=O)OCC(C[N+](C)(C)CCCS(=O)(=O)[O-])OC(=O)CCCCCCCCCCC (centres unmarked) = 0.276
• CCCCCCCCCCCCCCCC(=O)OCC(C[N+](C)(C)CCCS(=O)(=O)[O-])OC(=O)CCCCCCCCCCCCCCC (centres unmarked) = 0.134
